Molecular target: FTO (Homo sapiens, UniProt Q9C0B1)
Construct: The human full length FTO construct used in this study; made in house; host or cells: E. coli BL21 (DE3) Rosetta T1R
Sequence (Q9C0B1 whole entry): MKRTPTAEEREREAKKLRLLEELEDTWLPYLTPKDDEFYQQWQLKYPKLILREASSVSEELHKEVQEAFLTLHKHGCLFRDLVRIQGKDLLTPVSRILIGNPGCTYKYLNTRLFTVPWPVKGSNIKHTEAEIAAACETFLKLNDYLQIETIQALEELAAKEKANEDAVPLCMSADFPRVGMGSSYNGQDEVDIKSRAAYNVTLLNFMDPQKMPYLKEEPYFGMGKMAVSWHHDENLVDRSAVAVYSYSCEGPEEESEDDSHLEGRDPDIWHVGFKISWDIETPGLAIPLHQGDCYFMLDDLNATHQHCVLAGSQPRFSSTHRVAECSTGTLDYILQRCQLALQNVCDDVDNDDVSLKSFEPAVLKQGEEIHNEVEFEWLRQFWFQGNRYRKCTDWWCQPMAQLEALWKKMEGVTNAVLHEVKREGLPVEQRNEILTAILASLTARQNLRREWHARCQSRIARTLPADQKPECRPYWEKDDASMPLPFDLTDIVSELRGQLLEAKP
Assay: HPLC-based inhibition assay for FTO, m3T substrate
Type: biochemical
Conditions: HPLC-based demethylase assay, m3T substrate; read-out: IC50 (FTO)
Experimental: HPLC-based inhibition assays for FTO The assay was modified from previously reported method.[17] It is performed in triplicate for each inhibitor, in a final reaction volume of 25 µL. […] HPLC-based assay for FTO was also performed using an m6A-ssRNA as substrate. […] The reaction was analysed on a bio-inert HPLC system. […]
parameter: pIC50
// pIC50 here means minus log10 of the molar concentration (mol/L)

smiles.representation	assay.system	data.value
O=C(O)C=CC(=O)NNC(=O)c1cc(Cc2ccccc2)ccn1	FTO (Homo sapiens, UniProt Q9C0B1)	4.06

Consider now this further compound.
Query: Dear colleague, I am looking for the recorded pIC50 of the following compound: O=C(O)/C=C/C(=O)NNC(=O)c1ccccn1
Result: 3.96

----------
Property: Tm shift (ALKBH2); scope: individual substances
Target: ALKBH2 (Homo sapiens)
Construct: made in house; host or cells: E. coli BL21 (DE3)
Sequence (Q6NS38 56-258): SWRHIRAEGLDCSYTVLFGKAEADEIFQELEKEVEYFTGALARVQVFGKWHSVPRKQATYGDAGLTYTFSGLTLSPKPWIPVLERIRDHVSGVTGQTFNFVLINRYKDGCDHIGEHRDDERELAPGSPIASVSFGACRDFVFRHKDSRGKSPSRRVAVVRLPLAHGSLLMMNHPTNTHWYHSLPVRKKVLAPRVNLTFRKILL
Assay: Differential scanning fluorimetry (DSF)-based binding assay, ALKBH2
Settings: DSF, 100 μM compound, 2 μM protein, 50 μM MnCl2
Entry rule: numbers only, all in °C.

Example entries and their recorded answers appear below.
substance	assay.system	parameter	data.value
ATTGTGG(A)CUGCAGC: unmethylated counterpart of the 15-mer m6A ssRNA	ALKBH2 (Homo sapiens)	Tm shift (ALKBH2)	1.2
ATTGTGG(T)CTGCAGC: unmethylated counterpart of the 15-mer m3T ssDNA	ALKBH2 (Homo sapiens)	Tm shift (ALKBH2)	1.3
ATTGTGG(m3T)CTGCAGC: 15-mer m3T-containing ssDNA	ALKBH2 (Homo sapiens)	Tm shift (ALKBH2)	1.5

Consider now this further substance.
Query: Dear colleague, I am looking for the recorded Tm shift (ALKBH2) of the following substance: ATTGTGG(m6A)CUGCAGC: 15-mer m6A-containing ssRNA
Result: 1.0

----------
Target: FTO (Homo sapiens, UniProt Q9C0B1)
Construct: The human full length FTO construct used in this study; made in house; host or cells: E. coli BL21 (DE3) Rosetta T1R
Assay: HPLC-based inhibition assay for FTO, m3T substrate
Assay type: biochemical
Details: HPLC-based demethylase assay, m3T substrate; read-out: IC50 (FTO)
pIC50: −log10 of the molar value. Where a name gives a salt, the structure may show the parent alone.
parameter: pIC50

Example entries and their recorded answers appear below.
molecule	assay.system	data.value
NNC(=O)/C=C\C(=O)O [Compound 3, maleate hydrazide]	FTO (Homo sapiens, UniProt Q9C0B1)	< 4.00
NNC(=O)/C=C/C(=O)O [Compound 2, fumarate hydrazide]	FTO (Homo sapiens, UniProt Q9C0B1)	< 4.00

Consider now this further molecule.
Query: Short answer please: pIC50, FTO (Homo sapiens, UniProt Q9C0B1), entry NNC(=O)CCC(=O)O [Compound 1, succinate hydrazide]
Result: < 4.00
